tested on: c-Src; experiment: phosphorylation enrichment, bacterial display (enrichment ratio); higher = better substrate or ligand; peptides without Tyr show the background;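 note: 11-residue human phosphosite peptides and single-mutation variants displayed on the E. coli surface, counted by deep sequencing, each peptide's frequency after selection divided by its frequency in the unselected input library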;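 note: frequency after pTyr selection over input frequency; kinase dosed for 20-30% of maximal phosphorylation in three min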
Measured phosphorylation enrichment, listed per entry.
QUANTITY MEASURED: phosphorylation enrichment

[[record]]
sequence_data = "IVFTSYFLTIL [TAS2R16_Y239]"
quantity_measured = "phosphorylation enrichment"
numeric_result = 0.514

[[record]]
sequence_data = "EEAAGCAQESQ [CAMKV_Y491_Y491C]"
quantity_measured = "phosphorylation enrichment"
numeric_result = 0.491

[[record]]
sequence_data = "VEDHFYEGGIG [TKT_Y564_YF]"
quantity_measured = "phosphorylation enrichment"
numeric_result = 0.594

[[record]]
sequence_data = "NCLRQYVAGRF [CRB1_Y711_E710Q]"
quantity_measured = "phosphorylation enrichment"
numeric_result = 0.444

[[record]]
sequence_data = "VKANTYENYWP [GATM_Y100_K102N]"
quantity_measured = "phosphorylation enrichment"
numeric_result = 3.07

[[record]]
sequence_data = "ALDHKYHGGGG [HBB_Y146_A143D]"
quantity_measured = "phosphorylation enrichment"
numeric_result = 0.372

[[record]]
sequence_data = "KFLENYLNRLL [PLD2_Y169_YF]"
quantity_measured = "phosphorylation enrichment"
numeric_result = 0.481

[[record]]
sequence_data = "DHAGTYGLGDR [MAPT_Y18]"
quantity_measured = "phosphorylation enrichment"
numeric_result = 0.533

[[record]]
sequence_data = "DLVSEYQQFQD [TUBB3_Y422_YF]"
quantity_measured = "phosphorylation enrichment"
numeric_result = 0.657

[[record]]
sequence_data = "ECKETYHEGEC [PRKN_Y372_A371T]"
quantity_measured = "phosphorylation enrichment"
numeric_result = 0.645

[[record]]
sequence_data = "SAPDSYIRIGN [SLC38A4_Y27_G29R]"
quantity_measured = "phosphorylation enrichment"
numeric_result = 0.352

[[record]]
sequence_data = "LNPLIYTLRNA [OR4C46_Y285_K288R]"
quantity_measured = "phosphorylation enrichment"
numeric_result = 6.62

[[record]]
sequence_data = "QNTGDDYDLYG [PTPN11_Y62_Y62D]"
quantity_measured = "phosphorylation enrichment"
numeric_result = 1.99

[[record]]
sequence_data = "AIQDAYMHITS [ADCY10_Y318]"
quantity_measured = "phosphorylation enrichment"
numeric_result = 0.483

